system: KM12 colon; assay: NCI-60 one-dose screen, 48 h; details: 10 µM unless noted
About 83,000 compounds went through this panel and 20% of them were active in at least one assay; those are over-represented in the sample as a whole. Calls of active or inactive are those of the source. How the source made its calls: active means growth percent below 10; inactive means the rest.
Select the correct class. Options are active, inactive and nothing else.

# structure.notation, answer.label
records = [
    ("O=c1c2c3c(sc2n2cnnc2n1Cc1ccccc1)CCCC3", "inactive"),
]

Query: Status in this test for COc1ccc(/C=C(/C(=O)c2ccc(Cl)cc2)C(=O)C(F)(F)F)cc1 ?
Response: inactive

Query: Status in this test for CN(C)Cc1ccc[nH]1 ?
Response: inactive

Query: Status in this test for COc1cc2c(=O)[nH]c3cc([N+](=O)[O-])ccc3c2cc1[N+](=O)[O-] ?
Response: inactive

Query: Status in this test for C=C(C)[C@@H]1CC[C@]2(C(=O)NCCNCCNC(=O)OC(C)(C)C)CC[C@]3(C)[C@H](CC[C@@H]4[C@@]5(C)CCC(=O)C(C)(C)[C@@H]5CC[C@]43C)[C@@H]12 ?
Response: inactive

Query: Status in this test for COc1cc(C(=O)/C=C/c2c(-c3ccc(F)cc3)nc3sccn23)cc(OC)c1OC ?
Response: active

Query: Status in this test for O=C(Nc1cccc2ccccc12)c1cc2ccccc2cc1O ?
Response: inactive

Query: Status in this test for CCCCCCSc1ncnc2nc[nH]c12 ?
Response: inactive

Query: Status in this test for CC(C)[C@H]1COC(=O)N1[C@@H]1C(=O)N([C@@H](CCC(=O)N2CCN(C3CCCC3)CC2)C(=O)N[C@@H]2CCCc3ccccc32)[C@@H]1/C=C/c1cccc(Cl)c1 ?
Response: inactive

Query: Status in this test for O=C1Nc2ccccc2/C1=C/C(=O)c1ccc(N2CCOCC2)cc1 ?
Response: inactive

---

system: RXF 393 renal; test: NCI-60 one-dose screen, 48 h (100 = growth as untreated, 0 = no growth, -100 = all killed); settings: 10 µM unless noted
This is part of a sample that, as a whole, favours compounds with a hit. Of some 83,000 tested, about 20% had one in any assay.
experimental.readout: growth (%)
Give the quantity in %, number only.

# compound, output.unit, experimental.result
records = [
    ("CCOC(=O)CC(c1ccccc1)C(C#N)c1ccccc1 (stereo not given)", "%", 87.5),
    ("NC(=O)c1cccc(-c2ccc(S(=O)(=O)Nc3ccc4c(c3)N(C(=O)C3CC3)CCC4)cc2)c1", "%", 47.7),
    ("CSc1nc2sc3cc(Cl)c(Cl)cc3n2c(=N)c1C#N", "%", 149),
    ("COc1ccc2c(c1)C(C)Cc1c(ncnc1-n1cnc3ccccc31)N2C (stereo not given)", "%", 12.8),
    ("Cc1cc(C)nc(SCC(=O)Nc2cccc(N=Cc3ccccc3O)c2)n1", "%", 101),
    ("Cc1ccc2c(c1)/C(=N\\N=C/c1cn(C(C)C)c3ccccc13)C(=O)N2", "%", 22.5),
]

Query: What does the data say about its growth? Entry: CCOC(=O)c1nn(C2CCCCO2)c2ccc(NC(=O)CN3CCOCC3)cc12 (stereo not given)
Response: 122

Query: What does the data say about its growth? Entry: COc1ccc(C2CC(c3cc(OC)c(OC)c(OC)c3)=NN2C(C)=O)cc1OCC(=O)Nc1nc2ccc(C(F)(F)F)cc2s1 (stereo not given)
Response: 33.5

Query: What does the data say about its growth? Entry: CCN(CCO)CCC(=O)c1ccc([N+](=O)[O-])cc1
Response: 106

Query: What does the data say about its growth? Entry: CC(C)C1=NOC(=O)C1=Cc1cn(-c2ccccc2)nc1-c1ccccc1
Response: 70.3

---

system: MOLT-4 leukemia; assay: NCI-60 one-dose screen, 48 h; conditions: 10 µM unless noted
This is part of a sample that, as a whole, favours compounds with a hit. Of some 83,000 tested, about 20% had one in any assay. Calls of active or inactive are those of the source. Rule for the calls: active = growth percent below 10; inactive = the rest.
Select the correct class. Options are TRUE (active), FALSE (inactive) and nothing else.

Illustrative cases are given below, each with its answer.
# compound, answer.label
rows = [
    ("Cc1ccc(-c2cn(C/C=C3\\C=CN(S(=O)(=O)c4ccccc4)CC3)nn2)cc1", "FALSE"),
    ("O=[N+]([O-])c1cc(CCl)ccc1OCCBr", "FALSE"),
    ("COc1cc(C)cc2oc3oc(=O)c(C(=O)c4cc5cc(Br)ccc5o4)cc3c(=O)c12", "FALSE"),
    ("Nc1nnc(CSc2nnc3n(Cc4ccccc4)c(=O)c4c5c(sc4n23)CCCC5)s1", "FALSE"),
    ("O=C(NCCO)c1cccnc1", "FALSE"),
]

Query: Status in this test for O=C(N=c1n(-c2ccccc2)nc2n1CCN2C1=NCCN1C(=O)c1ccc(Cl)cc1)c1ccc(Cl)cc1 ?
Response: FALSE

Query: Status in this test for O=C(Nc1cccc(F)c1)c1cc(=O)[nH]c2cc(Br)ccc12 ?
Response: FALSE

Query: Status in this test for Cc1ccccc1OC(=O)c1cccc(Cl)c1 ?
Response: TRUE

---

tested on: SK-MEL-28 melanoma; assay: NCI-60 one-dose screen, 48 h; conditions: 10 µM unless noted
This is part of a sample that, as a whole, favours compounds with a hit. Of some 83,000 tested, about 20% had one in any assay. Activity calls are given as the source filed them. The calls were made as follows: active = growth percent below 10; inactive = the rest.
Select the correct class. Options are active, inactive and nothing else.

# compound, experimental.target, answer.label
records = [
    ("C=C(C)[C@@H]1CC[C@]2(COCCC#N)CC[C@]3(C)[C@H](CC[C@@H]4[C@@](C)(CCCNCCC#N)[C@H](C(=C)C)CC[C@]43C)[C@@H]12", "SK-MEL-28 melanoma", "active"),
    ("O=C1Cc2c(sc3c(F)cccc23)C(c2ccccc2[N+](=O)[O-])N1 (stereo not drawn)", "SK-MEL-28 melanoma", "inactive"),
    ("O=C1/C(=C\\c2cn(CC(O)CN3CCCCC3)c3ccccc23)c2ccccc2N1c1c(Cl)cccc1Cl (stereo not drawn)", "SK-MEL-28 melanoma", "active"),
    ("COCc1nc2ccccc2[nH]1", "SK-MEL-28 melanoma", "inactive"),
]

Query: Status in this test for C=C(CN=[N+]=[N-])[C@@H]1CC[C@]2(C)[C@H](CC[C@@H]3[C@H]4[C@H]5OC(=O)[C@@]4(CCC5(C)C)CC[C@]32C)[C@@]1(C)CCC#N ?
Response: inactive

Query: Status in this test for COc1ccc(N(c2nc(-c3ccc([N+](=O)[O-])cc3)cs2)C(C)C)cc1 ?
Response: inactive

Query: Status in this test for Cc1cnc(N)nc1OCC(C)(C)CNC(=O)c1cccc(-c2ccc(S(=O)(=O)Nc3ccc4c(c3)N(C(=O)C3CC3)CCC4)cc2)c1 ?
Response: inactive

Query: Status in this test for CCOC(=O)c1nn(C2CCCCO2)c2ccc(NC(=O)CN3CCOCC3)cc12 (stereo not drawn) ?
Response: inactive

---

test system: BT-549 breast; assay: NCI-60 one-dose screen, 48 h; conditions: 10 µM unless noted
The panel holds about 83,000 compounds, 20% with a hit somewhere; the sample as a whole holds those more often. Active and inactive are the calls of the source. How the source made its calls: active means growth percent below 10; inactive means the rest.
Select the correct class. Options are y = active, n = inactive and nothing else.

# compound, answer.label
measured = [
    ("NC(=O)CC1C=CCC1 (centres undefined)", "n"),
    ("C#CCNC(=O)CC[C@@H](C)[C@H]1CC[C@H]2[C@@H]3CC[C@@H]4CC(=O)CC[C@]4(C)[C@H]3CC[C@]12C", "y"),
    ("O=C(NCc1ccccc1)C(Cl)Cl", "n"),
]

Query: Status in this test for COCc1nc2ccccc2[nH]1 ?
Response: n

Query: Status in this test for O=C1/C(=C\c2cn(CC(O)CN3CCCCC3)c3ccccc23)c2ccccc2N1c1c(Cl)cccc1Cl (centres undefined) ?
Response: y

Query: Status in this test for CC(C)=CC/C=C(/C)[C@H]1CC[C@]2(C)[C@@H]1CC[C@@H]1[C@@]3(C)CCC(=O)NC(C)(C)[C@@H]3CC[C@]12C ?
Response: y

Query: Status in this test for Cc1cc(C)nc(SCC(=O)Nc2cccc(N=Cc3ccccc3O)c2)n1 ?
Response: n

Query: Status in this test for Cc1ccc(NC(=O)N[C@@H](Cc2cc(F)cc(F)c2)C(=O)N[C@@H]2C(=O)N3CCC[C@H]3C(=O)N3CCCC[C@H]3C(=O)N[C@@H](C)C(=O)N3C[C@H](C)C[C@H]3C(=O)O[C@H]2C)cc1 ?
Response: n

Query: Status in this test for C#C[C@]1(O)CC[C@H]2[C@@H]3CC=C4c5nc(Nc6ncccn6)sc5CC[C@]4(C)[C@H]3CC[C@@]21C ?
Response: n
